biological target: PACAP-R2 (Homo sapiens); construct: expressed in transfected cells; host or cells: CHO cells; experiment: Cyclic AMP SPA on CHO cells transfected with PACAP-R2; assay type: cell-based; conditions: cAMP SPA, concentration at which 50% of maximum PACAP27 activity is achieved, NA = no detectable activities, read-out: R2 EC50
Sequence (P32241 31-457, species assumed): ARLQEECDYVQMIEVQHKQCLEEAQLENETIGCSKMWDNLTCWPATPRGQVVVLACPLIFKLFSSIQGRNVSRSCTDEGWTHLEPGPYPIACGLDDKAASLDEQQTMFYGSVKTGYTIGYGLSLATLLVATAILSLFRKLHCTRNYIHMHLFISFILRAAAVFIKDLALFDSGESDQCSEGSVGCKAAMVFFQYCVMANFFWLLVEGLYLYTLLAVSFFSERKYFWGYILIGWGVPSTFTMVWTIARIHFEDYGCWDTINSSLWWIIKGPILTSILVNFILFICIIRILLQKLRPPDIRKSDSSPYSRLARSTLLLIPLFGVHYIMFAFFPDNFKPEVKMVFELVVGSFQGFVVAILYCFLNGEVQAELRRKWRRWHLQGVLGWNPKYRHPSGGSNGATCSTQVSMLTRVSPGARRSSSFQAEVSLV
No end group written: not given here.
ATTRIBUTE MEASURED: EC50 (nM)
Just the number please, in nM, no unit attached.

Exercise: # return recorded EC50 for input HSDGIFTDSYSRYRKQMAVKKYLAAVKKYLAAVRHG-NH2 [Peptide R3P17]
Key: 9

// below: EC50 requested for another substance
Exercise: # return recorded EC50 for input HSDAVFTDNYTRLRKQVAAKKYLNSIKNKRY [Peptide R3P68]
Key: 130

* * *

Form field: R3 Selectivity (one value per entry).
Target: PACAP-R3 (Homo sapiens, UniProt P41587)
Sequence (P41587 24-438): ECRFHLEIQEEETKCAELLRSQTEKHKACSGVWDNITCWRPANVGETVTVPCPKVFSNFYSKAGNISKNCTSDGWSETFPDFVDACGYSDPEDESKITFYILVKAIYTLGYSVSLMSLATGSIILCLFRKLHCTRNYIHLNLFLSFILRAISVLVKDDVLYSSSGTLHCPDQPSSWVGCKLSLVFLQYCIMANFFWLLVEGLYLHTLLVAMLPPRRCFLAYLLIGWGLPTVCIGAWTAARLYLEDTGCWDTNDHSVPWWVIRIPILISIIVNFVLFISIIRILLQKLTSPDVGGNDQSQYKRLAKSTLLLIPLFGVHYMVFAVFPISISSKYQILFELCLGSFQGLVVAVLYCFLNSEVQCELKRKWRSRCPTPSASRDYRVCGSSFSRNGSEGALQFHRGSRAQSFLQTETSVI
Assay: Cyclic AMP SPA on CHO cells expressing PACAP R3
Format: cell-based
Set-up: expressed in transfected cells; host or cells: CHO cells (Geneticin selection)
Settings: ratio of EC50 at R2 versus EC50 at R3
No end group written: not given here.
Just the number, please, no unit after it.

Examples with their reported R3 Selectivity follow.
Exercise: Name the value of R3 Selectivity reported for HSDAVFTENYTKLRKQLAAKKYLNDLKKGGT [Peptide R3P3] when tested on PACAP-R3 (Homo sapiens, UniProt P41587).
Key: 130

Exercise: Name the value of R3 Selectivity reported for HSDAVFTDNYTRLRKQMARKKYLNSIKNRI [rR3P177] when tested on PACAP-R3 (Homo sapiens, UniProt P41587).
Key: 70

Exercise: Name the value of R3 Selectivity reported for H-HSDGIFTDSYSRYRKQMAKKKYLAAVL-NH2 [PAC19] when tested on PACAP-R3 (Homo sapiens, UniProt P41587).
Key: 20

Exercise: Name the value of R3 Selectivity reported for HSDAVFTDNYTRLRKQIAAKKYLQTIKK [Peptide R3P61] when tested on PACAP-R3 (Homo sapiens, UniProt P41587).
Key: 140

Further cases:
Exercise: Name the value of R3 Selectivity reported for H-HSDAVFTDNYTRLRKQMAAKKYLNSIKNKH [Peptide R3P159] when tested on PACAP-R3 (Homo sapiens, UniProt P41587).
Key: 400

Exercise: Name the value of R3 Selectivity reported for HSDAVFTDNYTRLRKQMAAKKYLNSILK [Peptide R3P50] when tested on PACAP-R3 (Homo sapiens, UniProt P41587).
Key: 6
